test system: P. aeruginosa 827651; assay type: cell-based
Ends that are not written are not given here.
measured-parameter: MIC P. aeruginosa 827651 (µM)
Report the figure in µM without appending any unit label.

FRFKRKLPKYLLF-NH2 [HBP-3]    12.5
HNLFRKLTHRLFRRNFGYTLRSV-NH2 [HBP-5]    0.8
RWHLTHRPKTGYIRVLVH-NH2 [HBP-1]    25

Now look at this one.
## Task # MIC P. aeruginosa 827651 lookup, item GWKDKKSYRWFLQHRPQVGYIRVRFY-NH2 [HBP-4]
## Result 3.1

* * *

assay: Cytotoxicity, MTT assay; assay type: cell-based; conditions: human, HepG2 cells, 4 h peptide incubation in MEMα, average of three studies, read-out: LC50 (HepG2 cells)
Ends that are not written are not given here.
measured-parameter: CC50 at 4 h (µM)
Give just the number in µM; leave the unit off.

HNLFRKLTHRLFRRNFGYTLRSV-NH2 [HBP-5]    80

Attention now shifts to the item below.
## Task I have this substance here, GWKDKKSYRWFLQHRPQVGYIRVRFY-NH2 [HBP-4] , and I need its recorded CC50 at 4 h.
## Result 38

src = paper PMC12223310
